Target: ligand binding domain of human FXR (Homo sapiens)
Construct: purchased Thermofisher (LanthaScreen) PV4833
Assay: biochemical
Details: extent of activation relative to GW4064; read-out: Ligand Binding % Efficacy
Emax overview
Numeric only. Scale: %

CC1(C)CC(S(=O)(=O)NC(=O)c2ccc(N3C[C@@H]4C[C@H]3C[C@H]4OCc3c(C4CC4)cnn3-c3c(Cl)cccc3Cl)cc2)CCO1 (stereo partly drawn) [Compound I-21] = 174
O=C(O)c1cc([C@H]2CCOC2)c2nc(N3C[C@@H]4C[C@H]3C[C@H]4OCc3c(C4CC4)nnn3-c3c(Cl)cccc3Cl)sc2c1 (single isomer, unassigned) [Compound I-58] = 145
O=C(O)CCc1ccc(N2C[C@@H]3C[C@H]2C[C@H]3OCc2c(C3CC3)nnn2-c2c(Cl)cccc2Cl)cc1F [Compound I-55] = 147
O=C(O)c1ccc(N2C[C@@H]3C[C@H]2C[C@H]3OCc2c(C3CC3)cnn2-c2c(F)cccc2Cl)cc1F [Compound I-9] = 164

Problem: Tell us which Emax value is on record for O=C(O)c1ccc(N2C[C@@H]3C[C@H]2C[C@H]3OCc2c(C3CC3)cnn2-c2c(F)cccc2F)cc1F [Compound I-10]
Result: 164

Problem: Tell us which Emax value is on record for Cc1cccc(Cl)c1-n1ncc(C2CC2)c1CO[C@@H]1C[C@@H]2C[C@H]1CN2c1ccc(C(=O)O)c(F)c1 [Compound I-8]
Result: 164

Problem: Tell us which Emax value is on record for O=C(O)CCc1ccc(N2C[C@@H]3C[C@H]2C[C@H]3OCc2c(C3CC3)nnn2-c2c(Cl)cccc2Cl)c(F)c1 [Compound I-54]
Result: 152

Problem: Tell us which Emax value is on record for O=C(O)c1cc([C@H]2CCOC2)c2nc(N3C[C@@H]4C[C@H]3C[C@H]4OCc3c(-c4c(Cl)cccc4Cl)nnn3C3CC3)sc2c1 (single isomer, unassigned) [Compound I-65]
Result: 136

Problem: Tell us which Emax value is on record for O=C(O)CCc1ccc(N2C[C@@H]3C[C@H]2C[C@H]3OCc2c(C3CC3)cnn2-c2c(F)cccc2F)c(F)c1 [Compound I-35]
Result: 152

Problem: Tell us which Emax value is on record for O=C(NS(=O)(=O)C1CCOCC1)c1ccc(N2C[C@@H]3C[C@H]2C[C@H]3OCc2c(C3CC3)cnn2-c2c(Cl)cccc2Cl)cn1 [Compound I-25]
Result: 130

Problem: Tell us which Emax value is on record for CS(=O)(=O)CCNC(=O)c1ccc(N2C[C@@H]3C[C@H]2C[C@H]3OCc2c(-c3c(Cl)cccc3Cl)cnn2C2CC2)cc1F [Compound I-45]
Result: 57

Problem: Tell us which Emax value is on record for O=C(O)C1CC(c2ccc(N3C[C@@H]4C[C@H]3C[C@H]4OCc3c(C4CC4)cnn3-c3c(Cl)cccc3Cl)c(F)c2)C1 (stereo partly drawn) [Compound I-40]
Result: 156

* * *

EC50 overview
Target: ligand binding domain of human FXR (Homo sapiens, UniProt Q96RI1)
Construct: purchased Thermofisher (LanthaScreen) PV4833
Test: biochemical
Conditions: −log EC50, concentration required to produce 50% activation; FRET 520 nm/495 nm, 1 hour at room temperature; read-out: Ligand Binding pEC50 (converted)
Numeric only. Scale: nM

O=C(O)CCc1ccc(N2C[C@@H]3C[C@H]2C[C@H]3OCc2c(C3CC3)cnn2-c2c(Cl)cccc2Cl)cc1F = 100

Problem: Tell us which EC50 value is on record for O=C(O)CCc1ccc(N2C[C@@H]3C[C@H]2C[C@H]3OCc2c(C3CC3)nnn2-c2c(Cl)cccc2Cl)c(F)c1
Result: 20

Problem: Tell us which EC50 value is on record for O=C(O)c1cc([C@@H]2CCOC2)c2nc(N3C[C@@H]4C[C@H]3C[C@H]4OCc3c(-c4c(Cl)cccc4Cl)cnn3C3CC3)sc2c1 (single isomer, unassigned)
Result: 100

Problem: Tell us which EC50 value is on record for C[C@@H]1[C@@H]2C[C@@H](C[C@H]2OCc2c(C3CC3)cnn2-c2c(Cl)cccc2Cl)N1c1ccc(C(=O)O)c(F)c1
Result: 1000

* * *

Target: ligand binding domain of human FXR (Homo sapiens)
Construct: purchased Thermofisher (LanthaScreen) PV4833
Sequence (Q96RI1 262-486 limits assumed): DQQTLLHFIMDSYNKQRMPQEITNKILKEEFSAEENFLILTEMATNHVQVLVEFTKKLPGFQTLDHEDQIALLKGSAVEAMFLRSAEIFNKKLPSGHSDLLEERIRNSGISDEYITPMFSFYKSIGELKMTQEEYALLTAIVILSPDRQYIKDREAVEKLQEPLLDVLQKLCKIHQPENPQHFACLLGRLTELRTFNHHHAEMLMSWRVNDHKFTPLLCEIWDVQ
Assay: biochemical
Details: −log EC50, concentration required to produce 50% activation; FRET 520 nm/495 nm, 1 hour at room temperature; read-out: Ligand Binding pEC50 (converted)
QUANTITY KIND: EC50 (nM)
Numeric only. Scale: nM

Solved cases below.
O=C(O)c1ccc(N2C[C@@H]3C[C@H]2C[C@H]3OCc2c(C3CC3)nnn2-c2c(Cl)cccc2Cl)cc1F = 6.31
O=C(O)c1ccc(N2C(=O)[C@@H]3C[C@H]2C[C@H]3OCc2c(C3CC3)cnn2-c2c(Cl)cccc2Cl)c(F)c1 = 158
O=C(O)c1ccc(N2C(=O)[C@@H]3C[C@H]2C[C@H]3OCc2c(C3CC3)cnn2-c2c(Cl)cccc2Cl)cc1 = 39.8
O=C(NS(=O)(=O)C1CCOCC1)c1ccc(N2C[C@@H]3C[C@H]2C[C@H]3OCc2c(-c3c(Cl)cccc3Cl)cnn2C2CC2)cc1 = 100
Cc1cccc(C)c1-n1ncc(C2CC2)c1CO[C@@H]1C[C@@H]2C[C@H]1CN2c1ccc(CCC(=O)O)cc1F = 158

Could you now look at the following molecule, please?
Problem: Tell us which EC50 value is on record for O=C(O)c1cc([C@@H]2CCOC2)c2nc(N3C[C@@H]4C[C@H]3C[C@H]4OCc3c(-c4c(Cl)cccc4Cl)nnn3C3CC3)sc2c1 (single isomer, unassigned)
Result: 15.8

* * *

Target: human Farnesoid X receptor ligand-binding domain/Gal4 DNA binding domain chimera (Homo sapiens)
Construct: host or cells: FXR-UAS-bla HEK 293T (CellSensor UAS-bla HEK 293T)
Sequence (Q96RI1 262-486 limits assumed): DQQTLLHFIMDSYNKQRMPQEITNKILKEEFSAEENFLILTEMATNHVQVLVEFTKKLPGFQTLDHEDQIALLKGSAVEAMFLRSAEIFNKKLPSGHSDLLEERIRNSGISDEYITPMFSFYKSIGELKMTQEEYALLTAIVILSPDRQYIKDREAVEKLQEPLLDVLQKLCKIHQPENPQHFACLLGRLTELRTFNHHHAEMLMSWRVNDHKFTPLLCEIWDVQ
Assay: Cell-based assay of FXR activation (FXR-UAS-bla HEK 293T beta-lactamase reporter)
pEC50 overview
pEC50 (log units): -log10 of the concentration in mol/L.

O=C(O)c1cc([C@H]2CCOC2)c2nc(N3C[C@@H]4C[C@H]3C[C@H]4OCc3c(-c4c(Cl)cccc4Cl)nnn3C3CC3)sc2c1 (single isomer, unassigned) = 8.00
O=C(O)CCc1ccc(N2C[C@@H]3C[C@H]2C[C@H]3OCc2c(C3CC3)nnn2-c2c(Cl)cccc2Cl)cc1F = 7.80
O=C(O)c1cc([C@@H]2CCOC2)c2nc(N3C[C@@H]4C[C@H]3C[C@H]4OCc3c(-c4c(Cl)cccc4Cl)nnn3C3CC3)sc2c1 (single isomer, unassigned) = 7.80
O=C(O)CCc1ccc(N2C[C@@H]3C[C@H]2C[C@H]3OCc2c(C3CC3)cnn2-c2c(Cl)cccc2Cl)cc1F = 8.00

Could you now look at the following molecule, please?
Problem: Tell us which pEC50 value is on record for O=C(O)CCc1ccc(N2C[C@@H]3C[C@H]2C[C@H]3OCc2c(C3CC3)nnn2-c2c(Cl)cccc2Cl)c(F)c1
Result: 7.90

* * *

Biological target: ligand binding domain of human FXR (Homo sapiens)
Construct: purchased Thermofisher (LanthaScreen) PV4833
Experiment: biochemical
Conditions: −log EC50, concentration required to produce 50% activation; FRET 520 nm/495 nm, 1 hour at room temperature; read-out: Ligand Binding pEC50 (converted)
Just a reminder that ties go to no (0): only EC50 strictly below 6 nM counts as yes (1).

Please review the following examples before continuing.
O=C(NS(=O)(=O)CC1CCOC1)c1ccc(N2C[C@@H]3C[C@H]2C[C@H]3OCc2c(C3CC3)cnn2-c2c(Cl)cccc2Cl)cc1 (stereo partly drawn) = yes (1)
O=C(O)c1ccc(N2C[C@@H]3C[C@H]2C[C@H]3OCc2c(C3CC3)cnn2-c2c(Cl)cccc2Cl)nc1 = no (0)
O=C(O)c1cc([C@H]2CCOC2)c2nc(N3C[C@@H]4C[C@H]3C[C@H]4OCc3c(-c4c(Cl)cccc4Cl)cnn3C3CC3)sc2c1 (single isomer, unassigned) = no (0)
O=C(O)c1cc(C2CCCC2)c2nc(N3C[C@@H]4C[C@H]3C[C@H]4OCc3c(-c4c(Cl)cccc4Cl)nnn3C3CC3)sc2c1 = no (0)

Now, please, on to the next compound.
Problem: Here's an entry: O=C(O)c1ccc(N2C[C@@H]3C[C@H]2C[C@H]3OCc2c(C3CC3)cnn2-c2c(Cl)cccc2Cl)cc1F . Is its EC50 below 6 nM?
Result: yes (1)
